Where do the numbers come from? From patent US11771123B2.

experiment: Flow characteristics: timed flow from a vertically stood syringe under gravity; assay type: physicochemical; conditions: syringe filled with 20 mL test liquid, room temperature
assay_metric: Time for 20 mL flow (s)

O=C[C@H](O)[C@@H](O)[C@H](O)[C@H](O)CO [40% w/v glucose, D-glucose] = 15

[I] O=C[C@H](O)[C@@H](O)[C@H](O)[C@H](O)CO [80% w/v glucose, D-glucose]
[II] O=C[C@H](O)[C@@H](O)[C@H](O)[C@H](O)CO [20% w/v glucose, D-glucose]
[III] O=C[C@H](O)[C@@H](O)[C@H](O)[C@H](O)CO [60% w/v glucose, D-glucose]
Ranking field: Time for 20 mL flow; order: falling. Form field (ranking): labels in requested order. I, III, II

* * *

Assay: Flow characteristics: timed flow from a vertically stood syringe under gravity
Assay type: physicochemical
Settings: syringe filled with 20 mL test liquid, room temperature
Experimental: The glucose solutions were made by weighing 6, 12, 18, and 24 g D-glucose respectively and making up with 90° C. water to 30 mL. The flow characteristics were measured by timing the flow rate of 5 mL, and where suitable, 20 mL of the liquids from a vertically stood syringe (BD Plastipak 300613) filled with 20 mL of test liquid under gravity at room temperature. Sample were analyzed for flow characteristics as described in Example 9.
assay_metric: Time for 5 mL flow (s)

In the examples that follow, each entry is paired with its recorded Time for 5 mL flow.
O=C[C@H](O)[C@@H](O)[C@H](O)[C@H](O)CO [20% w/v glucose, D-glucose] = 2.3
O=C[C@H](O)[C@@H](O)[C@H](O)[C@H](O)CO [60% w/v glucose, D-glucose] = 3

[a] O=C[C@H](O)[C@@H](O)[C@H](O)[C@H](O)CO [40% w/v glucose, D-glucose]
[b] O=C[C@H](O)[C@@H](O)[C@H](O)[C@H](O)CO [80% w/v glucose, D-glucose]
Higher Time for 5 mL flow: a or b ? // return label of chosen record b
(b: 5 s, a: 2.5 s)
